// note: IC50 values for Protein O-GlcNAcase (Homo sapiens, UniProt O60502) were reported in different studies

Which IC50 value is on record for CC(c1ccc2scnc2c1)N1CCc2c(-c3ccccc3)nn(C)c2CC1 (racemic) ?
< 50 nM

Look up IC50: Cc1cc(Oc2ccc3c(c2)CCN(C(C)c2ccc4scnc4c2)CC3)ccn1 (racemic)
< 50 nM

# IC50 lookup, item CC(c1ccc2c(c1)OCC2)N1CCN(c2ncc(C(=O)N=S(C)(C)=O)cn2)CC1 (racemic)
< 50 nM

Look up IC50 for this compound: O=C1COCCN1c1ccc(CN2CCCC2c2ccc3c(c2)OCCO3)cc1 (racemic)
200 to 1000 nM

Quick one: IC50 of CN=S(C)(=O)c1ccc(N2CCN(C(C)c3ccc4c(c3)OCC4)CC2)nc1 (single isomer, unassigned) ?
< 50 nM

Which IC50 value is on record for "CNC(=O)C[C@@H]1[C@H](O)[C@H](O)[C@@H](CO)N1CCCNS(=O)(=O)c1ccc(-c2ccccc2)cc1" ?
2 nM

Value lookup for IC50; key = CC(c1ccc2scnc2c1)N1CCC2(CC1)C(=O)N(Cc1ccc(C#N)cc1)C(=O)N2Cc1ccc(C#N)cc1 (racemic)
200 to 1000 nM

Given the entry "CNC(=O)C[C@@H]1[C@H](O)[C@H](O)[C@@H](CO)N1CCCCCCCCCO" , report its measured IC50.
36 nM

I'd like to know its IC50. The compound in question is CC(c1ccc2scnc2c1)N1CCC2(CCN(Cc3ccc(C#N)cc3)C2=O)CC1 (racemic)
200 to 1000 nM

Look at this compound and give its reported IC50. CCS(=N)(=O)c1cnc(N2CCN(C(C)c3ccc4sc(C)nc4c3)CC2)nc1 (racemic)
< 50 nM

What does the data say about its IC50? Entry: Fc1cccc(Oc2ccc(CN3CCCC3c3ccc4c(c3)OCCO4)cc2)n1 (racemic)
200 to 1000 nM

// lookup IC50 for "CNC(=O)C[C@@H]1[C@H](O)[C@H](O)[C@@H](CO)N1CCCC(C)C"
14 nM

# lookup: IC50 of COCCN1C(=O)NC2(CCN(C(C)c3ccc4c(c3)OCC4)CC2)C1=O (racemic)
50 to 200 nM

Recorded IC50 for CC(c1ccc2scnc2c1)N1CCc2ccccc2CC1 (racemic) , please?
< 50 nM

Dear colleague, I am looking for the recorded IC50 of the following compound: c1cc(N2CCOCC2)ccc1CN1CCCC1c1ccc2c(c1)OCCO2 (racemic)
200 to 1000 nM

Which value of IC50 has been reported for COc1ccc2c(c1Cl)CCN(C(C)c1ccc3scnc3c1)CC2 (racemic) in the records?
50 to 200 nM

What does the data say about its IC50? Entry: "CNC(=O)[C@H]1N[C@H](CO)[C@@H](O)[C@@H]1O"
7 nM

Need IC50, item Fc1cc(-c2cccnc2)ccc1CN1CCCC1c1ccc2c(c1)OCCO2 (racemic)
50 to 200 nM

Could you tell me which IC50 is on file for O=S1(=O)CCN(c2ccc(CN3CCCC3c3ccc4c(c3)OCCO4)cc2)CC1 (racemic) ?
200 to 1000 nM

Which IC50 reading was recorded for the compound Cn1ccc(-c2ccc(CN3CCCC3c3ccc4c(c3)OCCO4)cc2)n1 (racemic) ?
200 to 1000 nM

So what does the record say about IC50 for COc1ccc2c(c1)CCN(Cc1ccc3nsnc3c1)C(C)C2 (racemic) ?
1000 to 10000 nM

Dear colleague, I am looking for the recorded IC50 of the following compound: CC(c1ccc2c(c1)OC(C)(C)C2)N1CCN(c2ncc(S(C)(=N)=O)cn2)CC1 (racemic)
1000 to 10000 nM

Field request: IC50 | item: c1cnc(-c2ccc(CN3CCCC3c3ccc4c(c3)OCCO4)cc2)nc1 (single isomer, unassigned)
50 to 200 nM

Looking for the measured IC50 of CC(=O)Nc1nc2c(s1)CN(C(C)c1ccc3scnc3c1)CCC2 (racemic) , can you help?
200 to 1000 nM

Which measured IC50 value corresponds to "CC(=O)NC[C@H]1N[C@H](CO)[C@@H](O)[C@H]1O" ?
1680 nM

Form field: reported IC50 of COc1ccc2c(c1)CCN(Cc1ccc3c(c1)OCCO3)C(C)C2 (racemic)
1000 to 10000 nM

Entry CC(c1ccc2scnc2c1)N1CCc2cc(N)cnc2CC1 (racemic) : reported IC50 = ?
< 50 nM

Endpoint output: IC50 of "CCCCCCCCCN1[C@H](CC(=O)NC)[C@H](O)[C@H](O)[C@H]1CO" . Value?
33 nM

# query: IC50 of entry CC(=O)Nc1ncc(CN2CCC3(CC2)NC(=O)N(c2cc(C)nc(C)c2)C3=O)s1 (racemic)
50 to 200 nM

Find the recorded IC50 belonging to Cc1nc2cc(C(C)N3CCN(c4ccc(S(C)(=N)=O)cn4)CC3)ccc2s1 (racemic) and report it.
< 50 nM

So what does the record say about IC50 for CC(c1ccc2scnc2c1)N1CCc2cc(NS(=O)(=O)C3CC3)cnc2CC1 (racemic) ?
< 50 nM

I would be grateful if you could share the reported IC50 for c1ncn(-c2ccc(CN3CCCC3c3ccc4c(c3)OCCO4)cc2)n1 (racemic) .
50 to 200 nM
